testName: Aqueous solubility of Compound I
Format: physicochemical
measurementContext: aqueous medium; typically
readoutLabel: solubility

1) C[C@H](NC(=O)C(C)(C)Oc1ccc(C(F)(F)F)cn1)[C@@H](Cc1ccc(Cl)cc1)c1cccc(C#N)c1 :: < 0.4 µg/mL

###

testName: Aqueous solubility of Compound I
Format: physicochemical
measurementContext: aqueous medium (not further specified)
readoutLabel: solubility

1. C[C@H](NC(=O)C(C)(C)Oc1ccc(C(F)(F)F)cn1)[C@@H](Cc1ccc(Cl)cc1)c1cccc(C#N)c1 [Compound I] :: < 0.4 µg/mL
